# assay text: Thermal decomposition by DSC
# Type: physicochemical
# condition: 10° C./min
Hi there, I'd appreciate the recorded DSC exotherm due to decomposition, onset for every entry that follows.

Solved entries:
molecule	measurement
COCc1nnc2n1Cc1c(C#Cc3cnc(OC)s3)ncn1-c1ccc(Cl)cc1-2 [Form E]	~201 °C
COCc1nnc2n1Cc1c(C#Cc3cnc(OC)s3)ncn1-c1ccc(Cl)cc1-2 [Form C]	190 °C

Kindly consider the entry below.
(Q) I am curious: what DSC exotherm due to decomposition, onset value has been reported for COCc1nnc2n1Cc1c(C#Cc3cnc(OC)s3)ncn1-c1ccc(Cl)cc1-2 [Material D] ?
(A) ~174 °C

###

# assay text: pKa of Compound 1 free base
# Format: physicochemical
measured property: pKa
Give bare numbers.

(Q) Item under review: COCc1nnc2n1Cc1c(C#Cc3cnc(OC)s3)ncn1-c1ccc(Cl)cc1-2 . Reported pKa?
(A) 1.16

Cited source: patent US20230279021A1
